Give measured Percent Effect for each item. Keep answers brief.
- test.system: Sialic acid-binding Ig-like lectin 9 (Homo sapiens) (UniProt Q9Y336)
- Sequence (Q9Y336 whole entry): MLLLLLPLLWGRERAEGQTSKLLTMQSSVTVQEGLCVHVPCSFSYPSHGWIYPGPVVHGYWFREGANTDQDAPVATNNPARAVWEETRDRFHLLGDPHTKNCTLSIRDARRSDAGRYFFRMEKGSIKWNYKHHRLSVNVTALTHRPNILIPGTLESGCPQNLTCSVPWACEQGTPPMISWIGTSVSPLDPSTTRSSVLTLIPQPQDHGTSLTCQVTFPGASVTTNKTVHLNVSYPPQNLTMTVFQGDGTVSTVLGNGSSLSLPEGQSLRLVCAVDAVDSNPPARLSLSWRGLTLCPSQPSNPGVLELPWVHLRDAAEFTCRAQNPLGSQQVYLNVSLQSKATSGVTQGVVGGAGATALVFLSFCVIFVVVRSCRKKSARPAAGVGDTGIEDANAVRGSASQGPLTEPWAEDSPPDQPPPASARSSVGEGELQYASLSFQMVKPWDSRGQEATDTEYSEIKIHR
- protocol.description: Hs-Siglec9 ALPHAscreen SOP 20170721
- Parameters: scale not given: direction of the effect not stated beside the values
- cond: 10 µM
Answer with a number only, understood to be in %.

Q: # input compound: COCC1COCCC12CCN(CCc1ccccc1)CC2 (stereo unspecified) ; wanted: its Percent Effect
Result: 0.939

Q: # input compound: CC(C)CNC(=O)c1ccc2nnc(C3CCN(S(C)(=O)=O)C3)n2c1 (stereo unspecified) ; wanted: its Percent Effect
Result: 1.06

Q: # input compound: O=S(=O)(C1CC1)N1CCO[C@H]2[C@H](OCC3CCCC3)CC[C@@H]21 ; wanted: its Percent Effect
Result: -1.17

Q: # input compound: COCC(=O)N1CCC2(CC1)CC(CC(=O)NC1CC1)c1ccccc12 (stereo unspecified) ; wanted: its Percent Effect
Result: 3.8

Q: # input compound: CC(Oc1ccccc1C(F)(F)F)C(=O)NS(=O)(=O)C(C)C (stereo unspecified) ; wanted: its Percent Effect
Result: -3.2

Q: # input compound: COc1cccc2ccn(CCC(=O)N3CCCC(C(=O)O)C3)c12 (stereo unspecified) ; wanted: its Percent Effect
Result: -0.508

Q: # input compound: Cc1cc2cc(C(=O)N3CC[C@H](O)[C@]4(CCCO4)C3)ccc2o1 ; wanted: its Percent Effect
Result: 3.44

Q: # input compound: CCc1ccc(NC(=O)C2OC(c3cccs3)=NN2C(C)=O)cc1 (stereo unspecified) ; wanted: its Percent Effect
Result: -5.11

Q: # input compound: Cc1cc(NC(=O)NCC(C)O)n(C)n1 (stereo unspecified) ; wanted: its Percent Effect
Result: 7.06

Q: # input compound: Cc1ccc(C)c(C(C(=O)O)N2CCCN(Cc3ccccn3)CC2)c1 (stereo unspecified) ; wanted: its Percent Effect
Result: 1.19

Q: # input compound: CC(C)NC(=O)C1CN(C(=O)c2ccco2)CC12CCOCC2 (stereo unspecified) ; wanted: its Percent Effect
Result: -6.62
